PROTOCOL_DETAILS: AUC in rat after 3mg/kg oral dose
Assay type: ADME, organism-based
CONDITION_CONTEXT: plasma
ENDPOINT_NAME: AUC (ng·h/mL)

CPD_SMILES | ENDPOINT_NAME | ASSAY_VALUE
COc1ccc(C(=O)Nc2c(Cl)cncc2Cl)c2ccc(C(F)(F)F)nc12 | AUC | 6860
COc1ccc(C(=O)Nc2c(Cl)c[n+]([O-])cc2Cl)c2ccc(C(F)(F)F)nc12 | AUC | 50500

###

TARGET_ENTITY: Phosphodiesterase 4 (Rattus norvegicus, UniProt P14270+P14646+P14644+P54748)
PROTOCOL_DETAILS: Inhibition of rolipram binding to PDE4 of rat brain

CPD_SMILES | IC50 / nM
COc1ccc(C(=O)Nc2c(C)cncc2C)c2ccc(C(F)(F)F)nc12 | 58
COc1ccc(C(=O)Nc2ccncc2Cl)c2ccc(C(F)(F)F)nc12 | 110
COc1ccc(C(=O)Nc2c(F)c[n+]([O-])cc2F)c2ccc(C(F)(F)F)nc12 | 60
COc1ccc(C(=O)Nc2c(C)c[n+]([O-])cc2C)c2ccc(C(F)(F)F)nc12 | 380
COc1ccc(C(=O)Nc2c(Cl)cncc2Cl)c2ccc(C(F)(F)F)nc12 | 77

All figures here come from ChEMBL document CHEMBL1135148.
